Below, each entry is listed alongside its reported Ratio IC50.
experiment: Selectivity ratio of IC50 for MMP3 to IC50 for MMP13

[
  {
    "Query Smiles": "CNC(=O)[C@H](NC(=O)c1ccc(-c2cccc(CNC(=O)c3cn4cccc(C)c4n3)c2)o1)C1CCCCC1",
    "Ratio IC50": "> 45"
  },
  {
    "Query Smiles": "CNC(=O)[C@H](NC(=O)c1ccc(-c2cccc(CNC(=O)c3cccc(C(F)(F)F)n3)c2)o1)C1CCCCC1",
    "Ratio IC50": "> 2300"
  }
]

# input for lookup
Query: Ratio IC50 for CNC(=O)[C@@H](NC(=O)c1ccc(-c2cccc(CNC(=O)c3cccc(C(F)(F)F)n3)c2)o1)C(C)(C)O ?
Result: > 400

----------
test: Selectivity ratio of IC50 for MMP10 to IC50 for MMP13
Property Measured: Ratio IC50

[
  {
    "Query Smiles": "CNC(=O)[C@H](NC(=O)c1ccc(-c2cccc(CNC(=O)c3ccnc(Cl)n3)c2)o1)C1CCCCC1",
    "Ratio IC50": 27
  },
  {
    "Query Smiles": "CNC(=O)[C@@H](NC(=O)c1ccc(-c2cccc(CNC(=O)c3cccc(C(F)(F)F)n3)c2)o1)C(C)C",
    "Ratio IC50": 260
  }
]

A: CNC(=O)[C@H](NC(=O)c1ccc(-c2cccc(CNC(=O)c3ccn(C)n3)c2)o1)C1CCCCC1
B: CNC(=O)[C@H](NC(=O)c1ccc(-c2cccc(CNC(=O)c3ccoc3C)c2)o1)C1CCCCC1
C: CNC(=O)[C@H](NC(=O)c1ccc(-c2cccc(CNC(=O)c3cn4cccc(C)c4n3)c2)o1)C1CCCCC1
D: CNC(=O)[C@@H](NC(=O)c1ccc(-c2cccc(CNC(=O)c3ccnc(C(F)(F)F)n3)c2)o1)C(C)C
Query: # desc sort on Ratio IC50 across 4 compounds Would you mind listing the labels in the order asked for?
Result: D, C, A, B

----------
assay: Selectivity ratio of IC50 for MMP3 to IC50 for MMP13
Below, each entry is listed alongside its reported Ratio IC50.

[
  {
    "Query Smiles": "CNC(=O)[C@H](NC(=O)c1ccc(-c2cccc(CNC(=O)c3occc3C)c2)o1)C1CCCCC1",
    "Ratio IC50": "> 110"
  }
]

Query: Ratio IC50 for CNC(=O)[C@H](NC(=O)c1ccc(-c2cccc(CNC(=O)c3nccn3C)c2)o1)C1CCCCC1 ?
Result: > 64

Query: How about CNC(=O)[C@H](NC(=O)c1ccc(-c2cccc(CNC(=O)c3cn4ccc(C)cc4n3)c2)o1)C1CCCCC1 ?
Result: > 37

----------
test: Selectivity ratio of IC50 for MMP2 to IC50 for MMP13
Property Measured: Ratio IC50

[
  {
    "Query Smiles": "CNC(=O)[C@@H](NC(=O)c1ccc(-c2cccc(CNC(=O)c3ccnc(C(F)(F)F)n3)c2)o1)C(C)C",
    "Ratio IC50": 850
  },
  {
    "Query Smiles": "CNC(=O)[C@H](NC(=O)c1ccc(-c2cccc(CNC(=O)c3ncccc3C)c2)o1)C1CCCCC1",
    "Ratio IC50": "> 200"
  },
  {
    "Query Smiles": "CNC(=O)[C@H](NC(=O)c1ccc(-c2cccc(CNC(=O)c3occc3C)c2)o1)C1CCCCC1",
    "Ratio IC50": "> 110"
  },
  {
    "Query Smiles": "CCc1cncc(C(=O)NCc2cccc(-c3ccc(C(=O)N[C@@H](C(=O)NC)C4CCCCC4)o3)c2)c1",
    "Ratio IC50": "> 170"
  },
  {
    "Query Smiles": "CNC(=O)[C@H](NC(=O)c1ccc(-c2cccc(CNC(=O)c3ccnc(C(F)(F)F)n3)c2)o1)C1CCCCC1",
    "Ratio IC50": "> 2800"
  },
  {
    "Query Smiles": "CNC(=O)[C@@H](NC(=O)c1ccc(-c2cccc(CNC(=O)c3ccnc(C(F)(F)F)n3)c2)o1)C1CC1",
    "Ratio IC50": 580
  },
  {
    "Query Smiles": "CNC(=O)[C@H](NC(=O)c1ccc(-c2cccc(CNC(=O)c3ccnc(Cl)n3)c2)o1)C1CCCCC1",
    "Ratio IC50": 590
  },
  {
    "Query Smiles": "CNC(=O)[C@H](NC(=O)c1ccc(-c2cccc(CNC(=O)c3ccccn3)c2)o1)C1CCCCC1",
    "Ratio IC50": "> 2400"
  }
]

# input for lookup
Query: Ratio IC50 for CNC(=O)[C@H](NC(=O)c1ccc(-c2cccc(CNC(=O)c3cn4ccc(C)cc4n3)c2)o1)C1CCCCC1 ?
Result: > 37

----------
test: Selectivity ratio of IC50 for MMP2 to IC50 for MMP13
Property Measured: Ratio IC50

# example entries with known answers
[
  {
    "Query Smiles": "CNC(=O)[C@H](NC(=O)c1ccc(-c2cccc(CNC(=O)c3cccnc3)c2)o1)C1CCCCC1",
    "Property Measured": "Ratio IC50",
    "Test Result": "> 480"
  },
  {
    "Query Smiles": "CNC(=O)[C@H](NC(=O)c1ccc(-c2cccc(CNC(=O)c3ccncn3)c2)o1)C1CCCCC1",
    "Property Measured": "Ratio IC50",
    "Test Result": 290
  },
  {
    "Query Smiles": "CNC(=O)[C@H](NC(=O)c1ccc(-c2cccc(CNC(=O)c3cccc(C(F)(F)F)n3)c2)o1)C1CCCCC1",
    "Property Measured": "Ratio IC50",
    "Test Result": "> 2300"
  },
  {
    "Query Smiles": "CNC(=O)[C@H](NC(=O)c1ccc(-c2cccc(CNC(=O)c3cn4cccc(C)c4n3)c2)o1)C1CCCCC1",
    "Property Measured": "Ratio IC50",
    "Test Result": "> 45"
  },
  {
    "Query Smiles": "CNC(=O)[C@@H](NC(=O)c1ccc(-c2cccc(CNC(=O)c3cccc(C(F)(F)F)n3)c2)o1)C(C)(C)O",
    "Property Measured": "Ratio IC50",
    "Test Result": "> 770"
  }
]

Query: Ratio IC50 for CNC(=O)[C@@H](NC(=O)c1ccc(-c2cccc(CNC(=O)c3ccnc(C(F)(F)F)n3)c2)o1)C1CCOCC1 ?
Result: 640

Query: How about CNC(=O)[C@H](NC(=O)c1ccc(-c2cccc(CNC(=O)c3cc(C)n(C)n3)c2)o1)C1CCCCC1 ?
Result: > 280

Query: How about CNC(=O)[C@H](NC(=O)c1ccc(-c2cccc(CNC(=O)c3csc(C)n3)c2)o1)C1CCCCC1 ?
Result: 310

Query: How about CNC(=O)[C@H](NC(=O)c1ccc(-c2cccc(CNC(=O)c3ccco3)c2)o1)C1CCCCC1 ?
Result: > 270

Query: How about CNC(=O)[C@H](NC(=O)c1ccc(-c2cccc(CNC(=O)c3nccn3C)c2)o1)C1CCCCC1 ?
Result: > 64
